molecular target: human MC3R (human, UniProt P41968 1-323); test: cell-based or functional assay
Sequence (P41968 whole entry): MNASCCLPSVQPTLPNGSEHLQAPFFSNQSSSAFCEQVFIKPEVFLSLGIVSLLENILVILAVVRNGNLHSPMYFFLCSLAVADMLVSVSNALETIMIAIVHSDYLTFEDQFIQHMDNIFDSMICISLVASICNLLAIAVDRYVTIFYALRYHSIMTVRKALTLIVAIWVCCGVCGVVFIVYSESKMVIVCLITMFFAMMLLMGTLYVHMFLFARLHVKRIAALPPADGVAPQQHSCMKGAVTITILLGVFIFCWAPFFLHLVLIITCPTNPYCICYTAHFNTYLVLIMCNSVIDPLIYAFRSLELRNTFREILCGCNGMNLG
Positions of bridges follow the written chain, without caps; N, C: chain ends. Non-standard residues stand in square brackets, D forms with d. dPhe(4-Br) = N[C@H](Cc1ccc(Br)cc1)C(=O)O; dPhe(4-I) = N[C@H](Cc1ccc(I)cc1)C(=O)O; d2Nal = N[C@H](Cc1ccc2ccccc2c1)C(=O)O; Tic = O=C(O)[C@@H]1Cc2ccccc2CN1; Nle = CCCC[C@H](N)C(=O)O
// label = class 1 if % max activation is not less than 20%, otherwise class 0

-- ask Determine whether this binder has % max activation no lower than 20%: Ac-RC[dA]R[dPhe(4-Br)]R[dW]CRF-NH2 (disulfide 2-8; SMILES CC(=O)N[C@@H](CCCNC(=N)N)C(=O)N[C@H]1CSSC[C@@H](C(=O)N[C@@H](CCCNC(=N)N)C(=O)N[C@@H](Cc2ccccc2)C(N)=O)NC(=O)[C@@H](Cc2c[nH]c3ccccc23)NC(=O)[C@H](CCCNC(=N)N)NC(=O)[C@@H](Cc2ccc(Br)cc2)NC(=O)[C@H](CCCNC(=N)N)NC(=O)[C@@H](C)NC1=O) [CTX-1220]
-- reply class 1

-- ask Determine whether this binder has % max activation no lower than 20%: Ac-RC[dA]R[dPhe(4-Br)]R[Tic]C-NH2 (disulfide 2-8) [CTX-1259]
-- reply class 1

-- ask Determine whether this binder has % max activation no lower than 20%: Ac-RC[dA]P[d2Nal]RWC-NH2 (disulfide 2-8; SMILES CC(=O)N[C@@H](CCCNC(=N)N)C(=O)N[C@H]1CSSC[C@@H](C(N)=O)NC(=O)[C@H](Cc2c[nH]c3ccccc23)NC(=O)[C@H](CCCNC(=N)N)NC(=O)[C@@H](Cc2ccc3ccccc3c2)NC(=O)[C@@H]2CCCN2C(=O)[C@@H](C)NC1=O) [CTX-2203]
-- reply class 0

-- ask Determine whether this binder has % max activation no lower than 20%: Ac-R[Nle]CH[dPhe(4-I)]R[dW]C-NH2 (disulfide 3-8; SMILES CCCC[C@H](NC(=O)[C@H](CCCNC(=N)N)NC(C)=O)C(=O)N[C@H]1CSSC[C@@H](C(N)=O)NC(=O)[C@@H](Cc2c[nH]c3ccccc23)NC(=O)[C@H](CCCNC(=N)N)NC(=O)[C@@H](Cc2ccc(I)cc2)NC(=O)[C@H](Cc2c[nH]cn2)NC1=O) [CTX-1233]
-- reply class 1

-- ask Determine whether this binder has % max activation no lower than 20%: Ac-CGR[dPhe(4-Br)]RFC-NH2 (disulfide 1-7) [CTX-1640]
-- reply class 1

-- ask Determine whether this binder has % max activation no lower than 20%: Ac-R[Nle]CH[dPhe(4-Br)]RWC-NH2 (disulfide 3-8; SMILES CCCC[C@H](NC(=O)[C@H](CCCNC(=N)N)NC(C)=O)C(=O)N[C@H]1CSSC[C@@H](C(N)=O)NC(=O)[C@H](Cc2c[nH]c3ccccc23)NC(=O)[C@H](CCCNC(=N)N)NC(=O)[C@@H](Cc2ccc(Br)cc2)NC(=O)[C@H](Cc2c[nH]cn2)NC1=O) [CTX-1229]
-- reply class 0
